Target: T1, marmoset IL-17F (marmoset, UniProt A6N6I9 31-163)
T1 sequence (looked up): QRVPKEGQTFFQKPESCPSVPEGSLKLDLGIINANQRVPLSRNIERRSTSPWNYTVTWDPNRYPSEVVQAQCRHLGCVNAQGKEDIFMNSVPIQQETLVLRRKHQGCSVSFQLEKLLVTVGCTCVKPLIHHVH
Assay: ELISA, coated IL-17F;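 further: binding ELISA on coated antigen from various species, with bound Nanobodies revealed by an HRP-linked anti-myc antibody and esTMB substrate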
Quantity Kind: OD (OD)
Answer in OD, number only, no unit symbol.

Completed entries (count: 3):
- 11A06 (VHH, Class 2) VHH: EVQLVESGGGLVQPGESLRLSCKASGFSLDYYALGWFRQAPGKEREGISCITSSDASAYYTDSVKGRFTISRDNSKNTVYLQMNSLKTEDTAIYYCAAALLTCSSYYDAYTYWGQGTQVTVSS: 0.0225
- 13E02 (VHH, Class 4; also called IL17MS13E02) VHH: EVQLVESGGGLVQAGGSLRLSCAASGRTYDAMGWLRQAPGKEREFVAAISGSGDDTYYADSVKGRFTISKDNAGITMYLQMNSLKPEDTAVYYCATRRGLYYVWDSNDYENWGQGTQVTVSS: 0.248
- 04B09 (VHH, Class 2) VHH: EVQLVESGGGLVQPGGSLRLSCAASGFTLGYYAIGWFRQAPGKEREGVSCDSSSDGDTYYANSVKGRFTISTDNGKNTVYLQMNSLKPEDTAVYYCATCTDWNYDYWGQGTQVTVSS: 0.0025

Recorded OD for 13B03 (VHH, Class 4; also called IL17MS13B03) VHH: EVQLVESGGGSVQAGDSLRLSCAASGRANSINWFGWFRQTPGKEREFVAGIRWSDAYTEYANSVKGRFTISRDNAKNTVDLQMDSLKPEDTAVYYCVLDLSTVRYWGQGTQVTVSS , please?
1.33
